Each entry below carries its recorded MIC.
system: Escherichia coli; test: Antimicrobial susceptibility testing (MIC), BD Phoenix Automated Microbiology System; assay type: cell-based; conditions: Escherichia coli, Escherichia coli isolate 3; read-out: minimal inhibiting concentration
QUANTITY NAME: MIC

[[record]]
smiles = "C[C@H]1[C@H](NC(=O)/C(=N\\OC(C)(C)C(=O)O)c2csc(N)n2)C(=O)N1S(=O)(=O)O"
value_observed = "> 16 µg/mL"

[[record]]
smiles = "O=C(O)c1cn(C2CC2)c2cc(N3CCNCC3)c(F)cc2c1=O"
value_observed = "> 2 µg/mL"

[[record]]
smiles = "CC(C)(O/N=C(\\C(=O)N[C@@H]1C(=O)N2C(C(=O)[O-])=C(C[n+]3ccccc3)CS[C@H]12)c1csc(N)n1)C(=O)O"
value_observed = "> 16 µg/mL"

[[record]]
smiles = "CN(C)[C@@H]1C(O)=C(C(N)=O)C(=O)[C@@]2(O)C(O)=C3C(=O)c4c(O)cccc4[C@@](C)(O)[C@H]3C[C@@H]12"
value_observed = "> 8 µg/mL"

